# Tested on: mouse microsomal triglyceride transfer protein mRNA
# Test: Antisense inhibition of mouse microsomal triglyceride transfer protein mRNA levels in primary hepatocytes, quantitative real-time PCR
# Type: cell-based
# Design: concentration or dose not given beside the values
# Conditions used: averages from two experiments
Strand notation (5' to 3'): a small letter for the sugar, then the base; units joined by * are phosphorothioate-linked, units joined directly phosphodiester-linked; [ ] holds rarer units or linkages, { } end groups; capitals alone tell only the bases. e = 2'-O-(2-methoxyethyl) (MOE); [5mC] = 5-methylcytosine; d = 2'-deoxy (DNA)
Readout name: % INHIB (inhibition of mouse microsomal triglyceride transfer protein mRNA levels)

I would be grateful if you could share the reported % INHIB (inhibition of mouse microsomal triglyceride transfer protein mRNA levels) for 144487 (e[5mC]*e[5mC]*e[5mC]*eA*eG*dG*dA*dT*d[5mC]*dA*dG*d[5mC]*dT*dT*d[5mC]*eT*eT*eA*eG*e[5mC]; antisense) [compound 144487] .
19%
